protocol.description: photocatalytic hydrogen evolution rate (per 5 mg catalyst); higher = more photocatalytic H2 evolution; extreme values may be limits of the assay;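 also: aromatic molecules in triethylamine/methanol/water with Pt photoreduced in situ, irradiated 3 h under a 1 sun AM 1.5G solar simulator (350–1000 nm), H2 quantified by headspace gas chromatography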;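 also: listed molecule itself used as the photocatalyst at 5 mg per vial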
particulars: catalyst mass (mg): 5; Pt cocatalyst (wt%): 3; sacrificial medium: triethylamine/methanol/water 1:1:1
measurement.type: photocatalytic hydrogen evolution rate (µmol/h)
Number only, in µmol/h; omit the unit.

# photocatalytic hydrogen evolution rate lookup, item `Brc1ccc2c(c1)sc1cc(Br)ccc12`
0

Can you check `CN(C)c1ccc(C=O)cc1` next?
0.34

Can you check `O=Cc1ccc(O)c(F)c1` next?
0.0382

Can you check `Oc1c(F)c(F)c(O)c(F)c1F` next?
0

Can you check `Nc1ccc2ccc3cccc4ccc1c2c34` next?
0

Can you check `N#Cc1ccccc1CBr` next?
0

Can you check `O=C(O)c1ccc(-c2ccc(-c3cc(-c4ccc(-c5ccc(C(=O)O)cc5)cc4)cc(-c4ccc(-c5ccc(C(=O)O)cc5)cc4)c3)cc2)cc1` next?
0

Can you check `N#Cc1c(F)c(F)nc(F)c1F` next?
0.00201

Can you check `CC(=O)c1ccc(CCc2ccc(C(C)=O)cc2)cc1` next?
0.387

Can you check `COC(=O)c1cccc2cc3cccc(C(=O)OC)c3cc12` next?
0.0378

Can you check `CC(C)(C)c1ccc(Nc2ccc(Nc3ccc(C(C)(C)C)cc3)c3c2C(=O)c2c(O)ccc(O)c2C3=O)cc1` next?
0

Can you check `Nc1ccc2c(c1)C(=O)c1ccc(N)cc1C2=O` next?
0.006

Can you check `Oc1ccc(I)cc1` next?
0

Can you check `Cc1cc(N)ccc1C#N` next?
0

Can you check `O=C1C=C(O)C(=O)C=C1O` next?
0

Can you check `COc1cc(Br)cc(OC)c1` next?
0.0348

Can you check `OB(O)c1cc(Br)cc(Br)c1` next?
0

Can you check `N#Cc1cc(F)c(F)c(F)c1F` next?
0

Can you check `Cc1cc(Br)c(C)cc1Br` next?
0

Can you check `CCOC(=O)c1ccc(C(=O)OCC)nc1` next?
0.0237

Can you check `N#Cc1ccc(C=O)cc1` next?
0.136

Can you check `N#Cc1c(F)c(F)c(F)c(F)c1C#N` next?
4.24

Can you check `O=C1C(F)=C(F)C(=O)C(F)=C1F` next?
0

Can you check `c1ccc(-c2c(-c3ccccc3)c(-c3ccccc3)c(-c3ccccc3)c(-c3ccccc3)c2-c2ccccc2)cc1` next?
0

Can you check `N#Cc1ccc(C(=O)c2ccc(C#N)cc2)cc1` next?
4.66

Can you check `O=Cc1ccc(-n2c3ccccc3c3ccccc32)cc1` next?
3.93

Can you check `Nc1cc(Br)c(F)cc1Br` next?
0

Can you check `COc1cc(Br)c(OC)cc1Br` next?
0

###

protocol.description: photocatalytic hydrogen evolution rate (per 5 mg catalyst); higher = more photocatalytic H2 evolution; extreme values may be limits of the assay
particulars: catalyst mass (mg): 5; Pt cocatalyst (wt%): 3; sacrificial medium: triethylamine/methanol/water 1:1:1
Please provide measured photocatalytic hydrogen evolution rate for the entries that follow.
Number only, in µmol/h; omit the unit.

# photocatalytic hydrogen evolution rate lookup, item `O=Cc1ccc(-c2ccc(-c3ccc(C=O)s3)s2)s1`
1.6

Can you check `Nc1ccc(-c2ccc(-c3ccc(N)cc3)cc2)cc1` next?
0

Can you check `COC(=O)/C=C/c1ccccc1` next?
0

Can you check `O=Cc1ccc(C=O)s1` next?
0.129

Can you check `N#Cc1cc(Br)c[nH]c1=O` next?
1.99

Can you check `Brc1ccc2c(c1)C1(c3ccccc3-c3ccccc31)c1cc(Br)ccc1-2` next?
0

Can you check `c1ccc2sccc2c1` next?
0

Can you check `Nc1ccc(-c2cc(-c3ccc(N)cc3)cc(-c3ccc(N)cc3)c2)cc1` next?
0

Can you check `Fc1c(Br)cccc1Br` next?
0

Can you check `CC1(C)OB(c2c3ccccc3c(B3OC(C)(C)C(C)(C)O3)c3ccccc23)OC1(C)C` next?
0

Can you check `O=Cc1ccc(C#Cc2ccccc2)cc1` next?
1.66

Can you check `O=C1c2ccccc2-c2ccccc21` next?
2.56

Can you check `C#Cc1cnc[nH]1` next?
0

Can you check `O=Cc1ccc2ccc3cccc4ccc1c2c34` next?
10.3

Reference source: the supplement of paper PMC8372320
